protocolDescription: Pharmacokinetic test of Compound 10 in mice (intravenous and intragastric)
Type: in vivo
appliedConditions: mouse, plasma; intravenous administration, 1 mg/kg, male CD-1 mice; read-out: Curve Area (0-inf) AUC0-inf
Procedure: Taking male CD-1 mice as test animals, drug concentrations in plasma at different moments after intravenous and intragastric administration of Compound 10 to the mice were determined by the LC/MS/MS method. The pharmacokinetic behavior of Compound 10 in mice was investigated and its pharmacokinetic profile was evaluated. […] After intravenous and intragastric administration to the mice, the content of the test compound in plasma was determined by the LC/MS/MS method. […]
parameterMeasured: AUC(0-inf)

substanceSmiles	assayResult
CCc1nc(OCCO)c2cc(N3C(=S)N(c4ccc(C#N)c(C(F)(F)F)c4)C(=O)C3(C)C)cc(F)c2n1	33.5 µM·h

* * *

protocolDescription: Pharmacokinetic test of Compound 35 and Compound 58 in mice (intravenous and intragastric)
Type: in vivo
appliedConditions: mouse, plasma, po; intragastric administration, 2 mg/kg, male CD-1 mice; read-out: Time to Peak Tmax
parameterMeasured: Tmax (h)

molecule	parameterMeasured	assayResult
CCc1cc(=O)n2cc(N3C(=S)N(c4ccc(C#N)c(C(F)(F)F)c4)C(=O)C3(C)C)cc(F)c2n1 [Compound 35]	Tmax	6
CCc1cc(=O)n2cc(N3C(=S)N(c4ccc(C#N)c(Cl)c4)C(=O)C3(C)C)cc(F)c2n1 [Compound 58]	Tmax	8

* * *

The compounds listed here are annotated with their pIC50.
systemTested: androgen receptor (AR) (Homo sapiens)
protocolDescription: Antagonism of compounds on nuclear translocation of androgen receptor (PathHunter NHR cell lines)
appliedConditions: antagonist mode, agonist 6a-Fluorotestosterone 0.06 μM (EC80)
pIC50: −log10 of the molar value.

substanceSmiles	systemTested	pIC50
CCc1nc2c(F)cc(N3C(=S)N(c4ccc(C#N)c(C(F)(F)F)c4)C(=O)C3(C)C)cn2c(=O)c1OCC(=O)NC	androgen receptor (AR) (Homo sapiens)	5.66
CC1(C)C(=O)N(c2ccc(C#N)c(C(F)(F)F)c2)C(=S)N1c1ccc2c(=O)n(CC(F)(F)F)cnc2c1	androgen receptor (AR) (Homo sapiens)	5.44
CCc1nc(OCCO)c2cc(N3C(=S)N(c4ccc(C#N)c(C(F)(F)F)c4)C(=O)C34CCC4)ccc2n1	androgen receptor (AR) (Homo sapiens)	6.19
CC1(C)C(=O)N(c2ccc(C#N)c(C(F)(F)F)c2)C(=S)N1c1cc(F)c2nc(OCCO)cc(=O)n2c1	androgen receptor (AR) (Homo sapiens)	5.64

* * *

protocolDescription: Pharmacokinetic test of Compound 10 in mice (intravenous and intragastric)
Assay type: in vivo
appliedConditions: mouse, plasma, po; intragastric administration, 2 mg/kg, male CD-1 mice; read-out: Curve Area (0-t) AUC0-last

substanceSmiles	AUC(0-t) / µM·h
CCc1nc(OCCO)c2cc(N3C(=S)N(c4ccc(C#N)c(C(F)(F)F)c4)C(=O)C3(C)C)cc(F)c2n1	26.3

* * *

protocolDescription: Pharmacokinetic test of Compound 35 and Compound 58 in mice (intravenous and intragastric)
Format: in vivo
appliedConditions: mouse, plasma; intravenous administration, 1 mg/kg, male CD-1 mice; read-out: Curve Area (0-t) AUC0-last
# Lookup of reported AUC(0-t) keyed by entry

substanceSmiles	AUC(0-t) [µM·h]
CCc1cc(=O)n2cc(N3C(=S)N(c4ccc(C#N)c(Cl)c4)C(=O)C3(C)C)cc(F)c2n1	271
CCc1cc(=O)n2cc(N3C(=S)N(c4ccc(C#N)c(C(F)(F)F)c4)C(=O)C3(C)C)cc(F)c2n1	58.7

* * *

protocolDescription: Pharmacokinetic test of Compound 10 in mice (intravenous and intragastric)
Type: in vivo
appliedConditions: mouse, plasma; intravenous administration, 1 mg/kg, male CD-1 mice; read-out: Apparent Volume of Distribution Vdss

substanceSmiles	Vd (L/kg)
CCc1nc(OCCO)c2cc(N3C(=S)N(c4ccc(C#N)c(C(F)(F)F)c4)C(=O)C3(C)C)cc(F)c2n1	0.384

* * *

concentration at 4 h values for the compounds below.
protocolDescription: Tissue distribution test of Compound 35 and Compound 58 (plasma and brain)
Assay type: in vivo
appliedConditions: mouse, plasma, oral; intragastric 2 mg/kg, 4 h after administration, male CD-1 mice

substanceSmiles	concentration at 4 h [µM]
CCc1cc(=O)n2cc(N3C(=S)N(c4ccc(C#N)c(Cl)c4)C(=O)C3(C)C)cc(F)c2n1	8.26
CCc1cc(=O)n2cc(N3C(=S)N(c4ccc(C#N)c(C(F)(F)F)c4)C(=O)C3(C)C)cc(F)c2n1	4.12

* * *

systemTested: androgen receptor (AR) (Homo sapiens)
protocolDescription: Antagonism of compounds on nuclear translocation of androgen receptor (PathHunter NHR cell lines)
appliedConditions: antagonist mode, agonist 6a-Fluorotestosterone 0.06 μM (EC80)
Description: Example 75 Test of Antagonism of Compounds on Nuclear Translocation of Androgen Receptor (AR) 1. PathHunter NHR cell lines were recovered and cultured for amplification. 2. The cells were inoculated onto a 384-well plate prior to testing, and incubated at 37° C. […] 4. […] The chemiluminescent signal was read with a PerkinElmer Envision™ instrument. 5. Data analysis: The compound activity was analyzed with CBIS data analysis software (ChemInnovation, CA). […]
Label class 1 when IC50 is strictly below 3 µM; otherwise label class 0.

compound	labelValue
CNc1nc(OCCO)c2cc(N3C(=S)N(c4ccc(C#N)c(C(F)(F)F)c4)C(=O)C3(C)C)ccc2n1 [Compound 16]	class 0
CNc1ncnc2cc(N3C(=S)N(c4ccc(C#N)c(C(F)(F)F)c4)C(=O)C3(C)C)ccc12 [Compound 1]	class 0
CCOc1nc(OCCO)c2cc(N3C(=S)N(c4ccc(C#N)c(C(F)(F)F)c4)C(=O)C3(C)C)cc(F)c2n1 [Compound 70]	class 0
CCc1nc(OCCO)c2cc(N3C(=S)N(c4ccc(C#N)c(C(F)(F)F)c4)C(=O)C3(C)C)ccc2n1 [Compound 27]	class 1
CCc1cc(=O)n2cc(N3C(=S)N(c4ccc(C#N)c(Cl)c4)C(=O)C3(C)C)cc(F)c2n1 [Compound 58]	class 1
CC1(C)C(=O)N(c2ccc(C#N)c(C(F)(F)F)c2)C(=S)N1c1ccc2ncnc(OCCO)c2c1 [Compound 12]	class 0
CCc1nc2ccc(N3C(=S)N(c4ccc(C#N)c(C(F)(F)F)c4)C(=O)C3(C)C)cn2c(=O)c1OCCO [Compound 38]	class 0

* * *

protocolDescription: Pharmacokinetic test of Compound 10 in mice (intravenous and intragastric)
Assay type: in vivo
appliedConditions: mouse, plasma, po; intragastric administration, 2 mg/kg, male CD-1 mice; read-out: Half Life T1/2 (converted)
parameterMeasured: half-life

substanceSmiles	assayResult
CCc1nc(OCCO)c2cc(N3C(=S)N(c4ccc(C#N)c(C(F)(F)F)c4)C(=O)C3(C)C)cc(F)c2n1	330 min

* * *

systemTested: androgen receptor (AR) (Homo sapiens)
Sequence (P10275 1-920): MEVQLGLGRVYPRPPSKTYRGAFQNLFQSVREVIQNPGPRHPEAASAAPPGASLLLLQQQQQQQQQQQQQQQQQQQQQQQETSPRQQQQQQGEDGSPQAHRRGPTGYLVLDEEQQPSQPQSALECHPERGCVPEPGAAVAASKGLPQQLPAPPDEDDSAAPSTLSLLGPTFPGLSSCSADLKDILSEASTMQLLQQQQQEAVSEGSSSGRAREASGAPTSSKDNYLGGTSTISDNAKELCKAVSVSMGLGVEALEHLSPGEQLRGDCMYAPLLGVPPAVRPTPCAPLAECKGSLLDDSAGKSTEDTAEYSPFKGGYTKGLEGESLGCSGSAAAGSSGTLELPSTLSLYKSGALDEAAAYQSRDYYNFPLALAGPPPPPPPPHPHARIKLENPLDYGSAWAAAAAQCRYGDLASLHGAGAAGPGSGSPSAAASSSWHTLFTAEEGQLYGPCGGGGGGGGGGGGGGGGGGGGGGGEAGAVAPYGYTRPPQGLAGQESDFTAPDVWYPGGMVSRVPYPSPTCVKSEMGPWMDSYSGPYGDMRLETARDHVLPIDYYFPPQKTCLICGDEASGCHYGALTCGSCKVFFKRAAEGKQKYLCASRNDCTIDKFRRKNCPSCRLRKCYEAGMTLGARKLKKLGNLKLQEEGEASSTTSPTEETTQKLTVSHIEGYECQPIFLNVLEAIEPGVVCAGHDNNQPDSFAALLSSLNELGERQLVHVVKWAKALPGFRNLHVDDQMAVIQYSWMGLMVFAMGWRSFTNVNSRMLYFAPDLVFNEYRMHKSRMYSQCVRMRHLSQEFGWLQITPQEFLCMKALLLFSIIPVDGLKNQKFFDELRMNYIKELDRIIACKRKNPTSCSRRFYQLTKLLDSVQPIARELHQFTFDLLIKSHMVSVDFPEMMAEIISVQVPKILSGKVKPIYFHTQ
protocolDescription: Antagonism of compounds on nuclear translocation of androgen receptor (PathHunter NHR cell lines)
appliedConditions: antagonist mode, agonist 6a-Fluorotestosterone 0.06 μM (EC80)
Protocol: Example 75 Test of Antagonism of Compounds on Nuclear Translocation of Androgen Receptor (AR) 1. PathHunter NHR cell lines were recovered and cultured for amplification. 2. The cells were inoculated onto a 384-well plate prior to testing, and incubated at 37° C. […] 4. […] The chemiluminescent signal was read with a PerkinElmer Envision™ instrument. 5. Data analysis: The compound activity was analyzed with CBIS data analysis software (ChemInnovation, CA). […]

substanceSmiles	IC50 (µM)
CCc1nc(-c2cc[nH]n2)c2cc(N3C(=S)N(c4ccc(C#N)c(C(F)(F)F)c4)C(=O)C3(C)C)cc(F)c2n1	1.23
CCc1nc(OCCN(C)C)c2cc(N3C(=S)N(c4ccc(C#N)c(C(F)(F)F)c4)C(=O)C3(C)C)cc(F)c2n1	3.1
CCc1nc2ccc(N3C(=S)N(c4ccc(C#N)c(C(F)(F)F)c4)C(=O)C3(C)C)cn2c(=O)c1OC	3.8
CC1(C)C(=O)N(c2ccc(C#N)c(C(F)(F)F)c2)C(=S)N1c1ccc2c(=O)n(CC(F)(F)F)ncc2c1	3.07
CC1(C)C(=O)N(c2ccc(C#N)c(C(F)(F)F)c2)C(=S)N1c1ccc2nc(C(F)F)nc(OCCO)c2c1	1.12
CCc1nc(OC2CCOCC2)c2cc(N3C(=S)N(c4ccc(C#N)c(C(F)(F)F)c4)C(=O)C3(C)C)cc(F)c2n1	1.86
CCc1cc(=O)n2cc(N3C(=S)N(c4ccc(C#N)c(F)c4)C(=O)C3(C)C)cc(F)c2n1	8.92
CCOc1cc(=O)n2cc(N3C(=S)N(c4ccc(C#N)c(C(F)(F)F)c4)C(=O)C3(C)C)cc(F)c2n1	1.4
CCc1cc(=O)n2cc(N3C(=S)N(c4ccc(C#N)c(C(F)(F)F)c4)C(=O)C34CCC4)cc(F)c2n1	2.5
CC1(C)C(=O)N(c2ccc(C#N)c(C(F)(F)F)c2)C(=S)N1c1ccc2nc(C3CC3)nc(OCCO)c2c1	1.14
CCc1nc(OCC(=O)NC)c2cc(N3C(=S)N(c4ccc(C#N)c(C(F)(F)F)c4)C(=O)C3(C)C)cc(F)c2n1	8.88
CC1(C)C(=O)N(c2cnc(C#N)c(C(F)(F)F)c2)C(=S)N1c1cc(F)c2nc(C(F)F)cc(=O)n2c1	2.96
CCc1nc2c(F)cc(N3C(=S)N(c4ccc(C#N)c(C(F)(F)F)c4)C(=O)C3(C)C)cn2c(=O)c1OCC(N)=O	3.5
CCc1nc2c(F)cc(N3C(=S)N(c4ccc(C#N)c(C(F)(F)F)c4)C(=O)C3(C)C)cn2c(=O)c1OC	3.23
